experiment: Solubility in H2O; format: physicochemical; conditions: water, 22° C.
Observable: solubility (mg/mL)
Report as a plain number; the unit mg/mL is understood.

What does the data say about its solubility? Entry: N=C(N)NCCC[C@@H](C(=O)O)N1C(=O)CC[C@@H]1C(=O)O
34.5

What does the data say about its solubility? Entry: N=C(N)NCCC[C@H](N[C@H](CCC(=O)O)C(=O)O)C(=O)O
6.3

What does the data say about its solubility? Entry: N=C(N)NCCC[C@H](N[C@@H](CCC(=O)O)C(=O)O)C(=O)O
21.3
